Target: KSP motor domain (Homo sapiens, UniProt P52732)
Experiment: biochemical
Settings: IC50 (nM), KSP inhibitory activity, end-point assay; class symbols (Table 1)
Each record here notes measured IC50.
measurement-kind: IC50

In [3]: df
Out[3]:
                                   compound  measurement_kind   endpoint_result
0  CC(C)(C)C1CCc2nc3sc(COC(N)=O)cc3cc2C1 (centres unmarked) [Example 147]              IC50  1000 to 10000 nM
1  C[Si](C)(C)C1CCc2nc3sc(C(=O)NCCN)cc3cc2C1 (centres unmarked) [Example 191]              IC50          < 100 nM
2  C[Si](C)(C)C1CCc2nc3sc(C(N)=O)cc3cc2C1 (single isomer, unassigned) [Example 189]              IC50          < 100 nM
3  CCOC(=O)c1cc2cc3c(nc2s1)CCC([Si](C)(C)C)C3 (centres unmarked) [Example 188]              IC50        > 10000 nM
4  CCOC(=O)c1sc2nc3c(cc2c1N)CC([Si](C)(C)C)CC3 (centres unmarked) [Example 187]              IC50        > 10000 nM

###

Biological target: KSP motor domain (Homo sapiens)
Sequence (P52732 18-359 limits assumed): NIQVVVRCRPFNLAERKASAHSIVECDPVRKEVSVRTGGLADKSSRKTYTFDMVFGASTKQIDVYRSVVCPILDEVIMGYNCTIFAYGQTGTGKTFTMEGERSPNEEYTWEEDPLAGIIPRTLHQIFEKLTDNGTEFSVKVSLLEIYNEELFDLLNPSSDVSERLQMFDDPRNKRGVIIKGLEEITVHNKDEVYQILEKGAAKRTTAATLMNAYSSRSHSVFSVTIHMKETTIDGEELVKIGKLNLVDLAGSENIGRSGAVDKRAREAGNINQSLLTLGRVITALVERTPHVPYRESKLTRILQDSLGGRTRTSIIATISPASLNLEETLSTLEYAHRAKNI
Assay: biochemical
Conditions: KSP inhibitory activity, end-point assay; class symbols (Table 1); read-out: IC50
measurement-kind: IC50

>>> df
                                   compound   endpoint_result
0  CCCC1CCc2nc3sc(C#N)c(N)c3cc2C1 (stereo not drawn)  1000 to 10000 nM
1  CC(C)(C)C1CCc2nc3sc(C(=O)N[C@H](CN)c4cccc(-c5ccncc5)c4)cc3cc2C1 (stereo partly drawn)    100 to 1000 nM
2  CC(C)(C)C1CCc2nc3sc(C#N)cc3cc2C1 (single isomer, unassigned) [Example 63]          < 100 nM
3  CCC(C)(C)C1CCc2nc3sc(-c4nn[nH]n4)cc3cc2C1 (stereo not drawn)  1000 to 10000 nM
4  CC(C)(C)C1CCc2nc3sc(CCl)cc3cc2C1 (stereo not drawn)    100 to 1000 nM
5  CC(C)(C)C1CCc2nc3sc(C(=O)N[C@H](C(=N)N)c4ccccc4)cc3cc2C1 (stereo partly drawn)    100 to 1000 nM
6  CCC(CN)NC(=O)c1cc2cc3c(nc2s1)CCC(C(C)(C)C)C3 (stereo not drawn)          < 100 nM
7  CN1CCN(C(=O)c2cc3cc4c(nc3s2)CCC(C(C)(C)C)C4)CC1 (stereo not drawn)        > 10000 nM
8  CNCc1cc2cc3c(nc2s1)CCC(C(C)(C)C)C3 (stereo not drawn)  1000 to 10000 nM
